procedure-details: ESI positive response factor (isotope-corrected peak area per molar concentration) in SFC/ESI/HRMS (area units per M); higher = higher ionization efficiency;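 note: standards in acetonitrile/water run in triplicate on a zwitterionic HILIC column, CO2–methanol gradient containing 20 mmol/L ammonium acetate, postcolumn makeup flow, Orbitrap full-scan detection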
conditions-used: 0.035 µM
value-kind: ESI positive response factor

compound=CCOP(=S)(OCC)Oc1cc(C)nc(C(C)C)n1 value_kind="ESI positive response factor" reported=5.67e+16
compound=CC(=O)Nc1ccc(O)cc1 value_kind="ESI positive response factor" reported=4.56e+16
compound=COP(=O)(OC)SCn1c(=O)oc2cc(Cl)cnc21 value_kind="ESI positive response factor" reported=7.29e+17
compound="CC(C)NCC(O)COc1ccc(C(=O)O)cc1 (configuration not stated)" value_kind="ESI positive response factor" reported=1.76e+17
compound=CN=C(NC#N)NCCSCc1nc[nH]c1C value_kind="ESI positive response factor" reported=9.26e+16
compound="CCCCCC(C)N (configuration not stated)" value_kind="ESI positive response factor" reported=1.87e+16
compound=C[N+](C)(C)CC(=O)O value_kind="ESI positive response factor" reported=1.36e+17
compound="O=P(OCCCl)(OCCCl)OCCCl [Tris(2-chloroethyl) phosphate]" value_kind="ESI positive response factor" reported=2.89e+18
compound=COC(=O)C1=CCCN(C)C1 value_kind="ESI positive response factor" reported=4.27e+17
compound="CNC(=O)CSP(=S)(OC)OC [Dimethoate]" value_kind="ESI positive response factor" reported=5.3e+16
compound="CC(=O)NCCNC(C)=O [N,N'-Ethylenebisacetamide]" value_kind="ESI positive response factor" reported=4.39e+16
compound="CCCCC(=O)N(Cc1ccc(-c2ccccc2-c2nn[nH]n2)cc1)C(C(=O)O)C(C)C (configuration not stated)" value_kind="ESI positive response factor" reported=5.36e+16
compound=Cc1ccc(NC(=O)N(C)C)cc1Cl value_kind="ESI positive response factor" reported=1.32e+17
compound=NC(N)=NC(N)=NCCc1ccccc1 value_kind="ESI positive response factor" reported=3.42e+17
compound="CNC(=O)CSP(=O)(OC)OC [Omethoate]" value_kind="ESI positive response factor" reported=3.37e+16
compound=CCOC(=O)NCCOc1ccc(Oc2ccccc2)cc1 value_kind="ESI positive response factor" reported=5.89e+17
compound=COc1ccc(C(=O)c2ccccc2)c(O)c1 value_kind="ESI positive response factor" reported=1.88e+17
compound=O=c1ccnc[nH]1 value_kind="ESI positive response factor" reported=2.97e+16
compound=NC(=O)C1(N2CCCCC2)CCN(CCCC(=O)c2ccc(F)cc2)CC1 value_kind="ESI positive response factor" reported=5.01e+17
compound="CC(C)NCC(O)COc1ccc(CC(N)=O)cc1 (configuration not stated)" value_kind="ESI positive response factor" reported=1.81e+17
compound="C[N+]1(C)[C@H]2CC(OC(=O)C(CO)c3ccccc3)C[C@H]1[C@H]1O[C@H]12 (some centres not stated)" value_kind="ESI positive response factor" reported=8.31e+17
compound=COc1nc(C)nc(NC(=O)NS(=O)(=O)c2ccccc2Cl)n1 value_kind="ESI positive response factor" reported=4.22e+16
compound="CC(O)CN(CCO)CCO (configuration not stated) [1-[N,N-Bis(2-hydroxyethyl)amino]-2-propanol]" value_kind="ESI positive response factor" reported=3.14e+17
compound="O=C(O)C(c1ccccc1)C1CCCCN1 (configuration not stated)" value_kind="ESI positive response factor" reported=1.26e+17
compound=CON(C)C(=O)Nc1ccc(Br)c(Cl)c1 value_kind="ESI positive response factor" reported=4.74e+16
compound=C#C[C@]1(O)CC[C@H]2[C@@H]3CCc4cc(O)ccc4[C@H]3CC[C@@]21C value_kind="ESI positive response factor" reported=1.46e+16
compound="C[N+](C)(C)CCCl [Chlormequate]" value_kind="ESI positive response factor" reported=1.26e+17
compound=CCC[C@@H]1O[C@@H]2C[C@H]3[C@@H]4CCC5=CC(=O)C=C[C@]5(C)[C@H]4[C@@H](O)C[C@]3(C)[C@]2(C(=O)CO)O1 value_kind="ESI positive response factor" reported=1.3e+17
compound=CCOP(=O)(OCC)OC(=CCl)c1ccc(Cl)cc1Cl value_kind="ESI positive response factor" reported=3.28e+17
compound="NCC1CCC(C(=O)O)CC1 (configuration not stated)" value_kind="ESI positive response factor" reported=9.61e+16
compound=COC(=O)NS(=O)(=O)c1ccc(N)cc1 value_kind="ESI positive response factor" reported=1.24e+16
compound="COC(=O)CCCCCCCCC(=O)OC [Dimethylsebacate]" value_kind="ESI positive response factor" reported=7.64e+16
compound=C[C@]12CC[C@H]3[C@@H](CCC4=CC(=O)CC[C@@]43C)[C@@H]1CC[C@@H]2O value_kind="ESI positive response factor" reported=2.44e+17
compound=Fc1ccc(Oc2ccnc3cc(Cl)cc(Cl)c23)cc1 value_kind="ESI positive response factor" reported=1.08e+18
compound=CNC(=O)Oc1cccc2c1OC(C)(C)C2 value_kind="ESI positive response factor" reported=8.12e+16
compound=Cn1cnc2c1c(=O)n(CCCC(=O)O)c(=O)n2C value_kind="ESI positive response factor" reported=2.12e+16
compound=CN(C)C(=O)C(c1ccccc1)c1ccccc1 value_kind="ESI positive response factor" reported=1.02e+17
compound="C=CC(=O)OCC[N+](C)(C)C [[2-(Acryloyloxy)ethyl]trimethylammonium]" value_kind="ESI positive response factor" reported=8.46e+16
compound="CNCCC(Oc1ccc(C(F)(F)F)cc1)c1ccccc1 (configuration not stated)" value_kind="ESI positive response factor" reported=1.16e+17
compound="N#CN=C(N)N [Dicyandiamide]" value_kind="ESI positive response factor" reported=3.07e+15
compound=CC1=C(C(=O)Nc2ccccc2)SCCO1 value_kind="ESI positive response factor" reported=1.1e+17
compound=OCCN1C[C@H](O)[C@@H](O)[C@H](O)[C@H]1CO value_kind="ESI positive response factor" reported=5.69e+15
